Read-out: Low-density lipoprotein receptor (LDLR), LDLR (gene 3949)
Assay: BSK_CASM3C_LDLR: BioMAP Diversity Plus: CASM3C Assay for Low-density lipoprotein receptor (LDLR) Biomarker Activity (AID 2283045);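 also: LDLR protein level on the cell surface quantified by ELISA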
Conditions: primary human coronary artery smooth muscle cells; actives raise or lower the signal
Activity calls are given as the source filed them. The calls were made as follows: active = hit-call score of the fitted dose curve at least 0.9, where 1 is the maximum; inactive = score below 0.9.
// one of YES (active), NO (inactive), no free text

IN: Assay result, entry "O=S(=O)(c1ccc(Cl)cc1)c1cc(Cl)c(Cl)cc1Cl" — outcome?
OUT: NO

IN: Assay result, entry "NC(=O)CCl" — outcome?
OUT: NO

IN: Assay result, entry OC(Cc1ccccc1Cl)(Cn1cncn1)C1(Cl)CC1 (configuration not stated) — outcome?
OUT: NO

IN: Assay result, entry "CC(C)N(C(=O)CCl)c1ccccc1" — outcome?
OUT: YES

IN: Assay result, entry CC(C=O)Cc1ccc2c(c1)OCO2 (configuration not stated) — outcome?
OUT: NO

IN: Assay result, entry "Oc1c(Cl)cc(Cl)cc1Cl" — outcome?
OUT: NO

IN: Assay result, entry "Clc1cccc(Cl)c1" — outcome?
OUT: NO

IN: Assay result, entry "OCCN(CCO)CCO" — outcome?
OUT: NO

IN: Assay result, entry "O=C(O)COc1cc(Cl)c(Cl)cc1Cl" — outcome?
OUT: NO

IN: Assay result, entry "Nc1ccc(N)cc1" — outcome?
OUT: NO

IN: Assay result, entry "CCOP(=S)(OCC)OP(=S)(OCC)OCC" — outcome?
OUT: NO

IN: Assay result, entry "c1ccc2sc(SNC3CCCCC3)nc2c1" — outcome?
OUT: NO

---

Assay: ATG_RORE_CIS: Attagene CIS-FACTORIAL HepG2 Assay for human RAR-related Orphan Receptor Element (RORE) (AID 2282959)
Details: HepG2 Attagene cis-factorial RORE reporter, mRNA; actives raise or lower the signal
Activity calls are given as the source filed them. The calls were made as follows: active = hit-call score of the fitted dose curve at least 0.9, where 1 is the maximum; inactive = score below 0.9.
// one of active, inactive, no free text

sample_smiles: Cc1cc(SCc2sc(-c3ccc(C(F)(F)F)c(F)c3)nc2C)ccc1OCC(=O)O
assigned_category: active

sample_smiles: c1cc[c]([Sb]([c]2ccccc2)[c]2ccccc2)cc1
assigned_category: inactive

sample_smiles: Nc1nc(=S)[nH][nH]1
assigned_category: inactive

sample_smiles: C=CC(=O)NC(C)(C)CC(C)=O
assigned_category: inactive

sample_smiles: N#Cc1cccnc1
assigned_category: inactive

IN: Assay result, entry "CCCCS(=O)(=O)Cl" — outcome?
OUT: inactive

IN: Assay result, entry "O=C(N[C@H]1CN2CCC1CC2)c1ccc2c(c1)OCCO2" — outcome?
OUT: inactive

IN: Assay result, entry "N#Cc1ccncc1" — outcome?
OUT: inactive

---

Read-out: Thrombomodulin, THBD (gene 7056)
Assay: BSK_CASM3C_Thrombomodulin: BioMAP Diversity Plus: CASM3C Assay for Thrombomodulin Biomarker Activity (AID 2283051);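 also: thrombomodulin protein level measured by ELISA 24 h after dosing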
Conditions: primary human coronary artery smooth muscle cells; actives raise or lower the signal
Calls of active or inactive are those of the source. How the source made its calls: active means hit-call score of the fitted dose curve at least 0.9, where 1 is the maximum; inactive means score below 0.9.
// one of active, inactive, no free text

Some entries whose results are on file:
compound: CC(C)(C)c1ccccc1O
assigned_category: inactive

compound: CC(C)(COCC1CO1)COCC1CO1 (centres undefined)
assigned_category: inactive

IN: Assay result, entry "COCC(=O)N(c1c(C)cccc1C)[C@H](C)C(=O)OC" — outcome?
OUT: inactive

IN: Assay result, entry "CCCCCCCCCCCCc1cccc(S(=O)(=O)O)c1" — outcome?
OUT: inactive

IN: Assay result, entry "CC(C)(C)c1cc([N+](=O)[O-])cc(C(C)(C)C)c1O" — outcome?
OUT: inactive

Sourced from PubChem BioAssay (EPA / NIEHS)
